test: Acute toxicity (LD50) in rats; conditions: rat, in vivo, oral administration, read-out: LD50
MEASURED PARAMETER: LD50 (mg/kg)
One number for each entry, in mg/kg.

Q: Indicate the recorded LD50 value for this compound: CC(C)(N1CC1C#N)N1CC1C(N)=O (stereo not shown)
Ans: 3100

---

experiment: Acute toxicity (LD50) in rats; settings: rat, in vivo, ip, single intraperitoneal administration, read-out: acute toxicity (LD50)
MEASURED PARAMETER: LD50 (mg/kg)
One number for each entry, in mg/kg.

Q: Tell me LD50 reported for CC(C)(N1CC1C#N)N1CC1C(N)=O (stereo not shown) [Example 1]
Ans: 2550

---

assay: Acute toxicity (LD50) in mice; conditions: mouse, in vivo, ip, single intraperitoneal administration
MEASURED PARAMETER: LD50 (mg/kg)
Give bare numbers, in mg/kg.

Q: Kindly indicate its recorded LD50. Item: CC(C)(N1CC1C#N)N1CC1C(N)=O (stereo not shown)
Ans: 2270

---

Would you mind telling me the reported proportion of the average leucocyte number of the test group to that of the control group of each entry?
tested on: leucocyte number; test: Alteration of the leucocyte number in rats; assay type: in vivo, female Sprague-Dawley rats; conditions: 50 mg per kg body weight, oral; fourth day; ten rats

Q: Give the measured proportion of the average leucocyte number of the test group to that of the control group for N#CC1CN1C1(N2CC2C(N)=O)CCCCC1 (stereo not shown) [Example 10]
Ans: 0,92

Working through the 3 compounds below one at a time, give proportion of the average leucocyte number of the test group to that of the control group for each.
1. N#CC1CN1C1(N2CC2C(N)=O)CCCCC1 (stereo not shown) [Example 16]
2. CC(C)(N1CC1C#N)N1CC1C(N)=O (stereo not shown) [Example 1]
3. CC(C)(N1CC1C#N)N1CC1C(N)=O (stereo not shown) [Example 3]

Ans:
1,30
1,70
1,42
